- SUBJECT OF TEST: Estrogen receptor alpha (ERalpha) (Homo sapiens, UniProt P03372)
- METHOD DESCRIPTION: Safety index, ratio of IC50 for test compound to IC50 for paraben for displacement of Fluor.ES2 Green from human ERalpha by TR-FRET competitive binding assay
- REPORTED CONDITIONS: probe Fluor.ES2 Green, read-out: Ratio IC50
REPORTED METRIC: selectivity ratio

Consider the following illustrative entries.
{"COMPOUND": "CCCCOC(=O)c1cc([N+](=O)[O-])c(O)c([N+](=O)[O-])c1", "selectivity ratio": "20 to 40"}
{"COMPOUND": "CCCCOC(=O)c1cc(I)c(O)c(I)c1", "selectivity ratio": "20 to 40"}
{"COMPOUND": "CCCCCCCCOC(=O)c1cc(I)c(O)c(I)c1", "selectivity ratio": "20 to 40"}

selectivity ratio reported for this compound CCCCOC(=O)c1cc(C)c(O)c(C)c1 : 20 to 40

selectivity ratio reported for this compound CCCCOC(=O)c1cc(C(C)(C)C)c(O)c(C(C)(C)C)c1 : 20 to 40

selectivity ratio reported for this compound CCCCCCCCOC(=O)c1cc(O)c(O)c(O)c1 [OCTYL_GALLATE] : 20 to 40

* * *

Reported pIC50 values are given for each entry in this list.
- SUBJECT OF TEST: UniProtKB P03372
- Sequence (P03372 whole entry): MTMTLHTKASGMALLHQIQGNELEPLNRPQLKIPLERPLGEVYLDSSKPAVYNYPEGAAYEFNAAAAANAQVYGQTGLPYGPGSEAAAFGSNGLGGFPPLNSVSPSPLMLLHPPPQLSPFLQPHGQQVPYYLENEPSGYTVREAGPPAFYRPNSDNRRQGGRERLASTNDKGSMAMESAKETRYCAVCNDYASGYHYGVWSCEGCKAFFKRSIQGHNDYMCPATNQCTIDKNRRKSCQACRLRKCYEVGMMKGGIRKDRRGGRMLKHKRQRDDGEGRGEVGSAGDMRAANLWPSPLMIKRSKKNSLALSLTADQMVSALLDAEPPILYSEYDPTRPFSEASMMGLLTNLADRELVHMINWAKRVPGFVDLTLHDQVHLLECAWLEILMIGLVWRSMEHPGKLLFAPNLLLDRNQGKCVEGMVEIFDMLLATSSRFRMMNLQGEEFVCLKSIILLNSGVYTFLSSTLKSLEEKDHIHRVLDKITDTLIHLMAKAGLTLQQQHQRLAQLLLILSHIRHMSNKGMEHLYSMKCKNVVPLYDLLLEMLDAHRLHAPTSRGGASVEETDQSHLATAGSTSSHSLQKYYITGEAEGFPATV
pIC50 here: minus log base 10 of the concentration, concentration in moles per litre.

{"MOLECULE": "CCCCCCCCOC(=O)c1cc(I)c(O)c(I)c1", "pIC50": 4.88}
{"MOLECULE": "CCCCOC(=O)c1cc(O)c(O)c(O)c1 [BUTYL GALLATE]", "pIC50": 5.05}
{"MOLECULE": "CCCCOC(=O)c1ccc(O)c(I)c1", "pIC50": 5.10}

pIC50 reported for this molecule CCCCOC(=O)c1cc(Cl)c(O)c(Cl)c1 : 4.26

pIC50 reported for this molecule CCCCOC(=O)c1cc(C)c(O)c(C)c1 : 4.49

pIC50 reported for this molecule CCCCOC(=O)c1c(F)c(F)c(O)c(F)c1F : 4.53

* * *

- System: MCF7
- Format: ADME, cell-based
- REPORTED CONDITIONS: human, mcf7, 24 h
REPORTED METRIC: Activity

Consider the following illustrative entries.
{"COMPOUND": "CCCCOC(=O)c1cc(Cl)c(O)c(Cl)c1", "Activity": "Non-Toxic"}
{"COMPOUND": "CCCCOC(=O)c1ccc(O)cc1 [BUTYLPARABEN]", "Activity": "Toxic"}
{"COMPOUND": "CCCCOC(=O)c1cc(OC)c(O)c(OC)c1", "Activity": "Non-Toxic"}
{"COMPOUND": "CCOC(=O)c1ccc(O)cc1 [ETHYLPARABEN]", "Activity": "Toxic"}

Activity reported for this compound CCCCCCCCOC(=O)c1cc(C)c(O)c(C)c1 : Non-Toxic

* * *

- SUBJECT OF TEST: Estrogen receptor (Homo sapiens)
- Sequence (P03372 whole entry): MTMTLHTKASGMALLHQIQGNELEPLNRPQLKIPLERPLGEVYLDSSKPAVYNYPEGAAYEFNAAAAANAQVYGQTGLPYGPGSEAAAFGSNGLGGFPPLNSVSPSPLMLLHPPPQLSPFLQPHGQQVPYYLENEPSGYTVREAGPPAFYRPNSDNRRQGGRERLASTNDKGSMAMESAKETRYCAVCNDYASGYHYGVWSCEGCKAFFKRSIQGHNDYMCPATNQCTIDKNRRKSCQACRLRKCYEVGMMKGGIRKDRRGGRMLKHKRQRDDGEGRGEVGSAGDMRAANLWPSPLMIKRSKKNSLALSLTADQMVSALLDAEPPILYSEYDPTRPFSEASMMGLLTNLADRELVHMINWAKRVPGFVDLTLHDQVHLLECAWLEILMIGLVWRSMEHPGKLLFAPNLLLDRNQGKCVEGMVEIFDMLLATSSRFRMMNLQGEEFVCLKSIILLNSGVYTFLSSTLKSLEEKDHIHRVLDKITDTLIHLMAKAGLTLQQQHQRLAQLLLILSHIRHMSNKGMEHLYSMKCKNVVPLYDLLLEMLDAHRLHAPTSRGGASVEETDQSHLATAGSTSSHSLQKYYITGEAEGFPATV
REPORTED METRIC: pIC50
pIC50 here: minus log base 10 of the concentration, concentration in moles per litre.

pIC50 reported for this molecule CCCCCCCCOC(=O)c1cc(O)c(O)c(O)c1 [OCTYL_GALLATE] : 5.06

pIC50 reported for this molecule CCCCOC(=O)c1cc(I)c(O)c(I)c1 : 4.46

pIC50 reported for this molecule CCCCOC(=O)c1ccc(O)c(Br)c1 : 5.09

pIC50 reported for this molecule CCCCCCCCOC(=O)c1cc(C)c(O)c(C)c1 : 4.79

pIC50 reported for this molecule CCCCOC(=O)c1cc(Br)c(O)c(Br)c1 : 4.40

pIC50 reported for this molecule CCCCCCCCOC(=O)c1cc([N+](=O)[O-])c(O)c([N+](=O)[O-])c1 : 4.22

* * *

Reported pIC50 values are given for each entry in this list.
- SUBJECT OF TEST: Estrogen receptor (Homo sapiens)
- Sequence (P03372 whole entry): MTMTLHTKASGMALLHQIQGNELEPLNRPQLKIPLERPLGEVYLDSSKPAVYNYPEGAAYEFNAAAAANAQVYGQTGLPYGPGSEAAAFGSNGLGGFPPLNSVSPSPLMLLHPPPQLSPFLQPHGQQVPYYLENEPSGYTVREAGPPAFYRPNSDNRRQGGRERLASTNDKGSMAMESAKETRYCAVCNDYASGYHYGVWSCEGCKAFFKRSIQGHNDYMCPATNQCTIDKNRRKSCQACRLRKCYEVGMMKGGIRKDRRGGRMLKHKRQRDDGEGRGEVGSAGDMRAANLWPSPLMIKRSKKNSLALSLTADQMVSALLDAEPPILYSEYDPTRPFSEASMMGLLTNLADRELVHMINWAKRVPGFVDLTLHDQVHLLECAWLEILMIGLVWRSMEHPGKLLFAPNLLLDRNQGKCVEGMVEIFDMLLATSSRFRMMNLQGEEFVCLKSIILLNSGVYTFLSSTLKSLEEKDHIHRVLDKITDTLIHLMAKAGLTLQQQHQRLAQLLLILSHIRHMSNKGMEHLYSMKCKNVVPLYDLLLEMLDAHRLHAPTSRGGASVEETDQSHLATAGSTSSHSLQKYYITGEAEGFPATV
pIC50: −log10 of the molar value.

Consider the following illustrative entries.
{"COMPOUND STRUCTURE STRING": "CCCCOC(=O)c1cc(C(C)(C)C)c(O)c(C(C)(C)C)c1", "OBS VALUE": "< 3.70"}
{"COMPOUND STRUCTURE STRING": "CCCCOC(=O)c1cc([N+](=O)[O-])c(O)c([N+](=O)[O-])c1", "OBS VALUE": "< 3.70"}

Now for a further compound.
pIC50 reported for this compound CCCCOC(=O)c1cc(OC)c(O)c(OC)c1 : < 3.70
